# study system: T1, mTfR-1 N333A on Expi293 cells (mouse, UniProt Q62351 1-763)
# T1 construct: whole, on cells
# T1 sequence (Q62351 whole entry N333A): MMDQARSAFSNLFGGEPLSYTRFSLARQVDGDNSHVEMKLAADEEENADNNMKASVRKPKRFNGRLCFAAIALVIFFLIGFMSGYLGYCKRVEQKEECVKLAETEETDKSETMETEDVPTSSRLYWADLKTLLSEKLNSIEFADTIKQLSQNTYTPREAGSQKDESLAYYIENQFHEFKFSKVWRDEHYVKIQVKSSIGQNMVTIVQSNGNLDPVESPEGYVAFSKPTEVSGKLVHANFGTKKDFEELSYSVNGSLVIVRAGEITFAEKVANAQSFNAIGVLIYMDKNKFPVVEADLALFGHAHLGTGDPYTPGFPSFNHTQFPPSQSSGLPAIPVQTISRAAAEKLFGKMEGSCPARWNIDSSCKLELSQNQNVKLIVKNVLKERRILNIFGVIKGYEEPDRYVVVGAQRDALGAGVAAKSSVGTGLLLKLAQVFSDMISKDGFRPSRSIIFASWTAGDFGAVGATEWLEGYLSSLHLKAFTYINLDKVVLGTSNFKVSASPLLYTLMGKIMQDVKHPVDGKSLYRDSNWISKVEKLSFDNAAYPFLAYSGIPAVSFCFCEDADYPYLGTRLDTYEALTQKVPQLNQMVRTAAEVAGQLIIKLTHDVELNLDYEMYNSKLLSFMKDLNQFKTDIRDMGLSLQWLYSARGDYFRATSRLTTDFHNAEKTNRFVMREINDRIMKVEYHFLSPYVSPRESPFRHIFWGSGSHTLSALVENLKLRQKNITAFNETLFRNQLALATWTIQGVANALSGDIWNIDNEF
# run description: FACS, transfected Expi293 cells
Some binders, each annotated with its measured % double-positive cells vs WT.
Dear colleague, please send the value followed by its unit.

binder	result
8D3 antibody (anti-mouse TfR-1 control; 8D3-hFc formatted antibody) (antibody, V domains shown) VH: EVQLVESGGGLVQPGNSLTLSCVASGFTFSNYGMHWIRQAPKKGLEWIAMIYYDSSKMNYADTVKGRFTISRDNSKNTLYLEMNSLRSEDTAMYYCAVPTSHYVVDVWGQGVSVTVSS VL: DIQMTQSPASLSASLEEIVTITCQASQDIGNWLAWYQQKPGKSPQLLIYGATSLADGVPSRFSGSRSGTQFSLKISRVQVEDIGIYYCLQAYNTPWTFGGGTKLELK	90%

Give the value of % double-positive cells vs WT reported for the following: Clone C variant 13 VNAR-hFc (Fc fusion, not shown: a dimerising Fc or GST, also called Clone C v13; Clone C var; 13) ARVDQTPQTITKETGESLTINCVLRDSNCALSSTYWYRKKSGSTNEENISKGGRYVETVNSGSKSFSLRINDLTVEDSGTYRCNVVQYPQQDNYFWCDVYGDGTAVTVN 94%

Give the value of % double-positive cells vs WT reported for the following: Clone C variant 18 VNAR-hFc (Fc fusion, not shown: a dimerising Fc or GST, also called Clone C v18; Clone C var; 18) ARVDQTPQTITKETGESLTINCVLRDSNCALSSTYWYRKKSGSTNEENISKGGRYVETVNSGSKSFSLRINDLTVEDSGTYRCNVVQYPQYPNYFWCDVYGDGTAVTVN 161%

Give the value of % double-positive cells vs WT reported for the following: Clone C VNAR-hFc fusion (Fc fusion, not shown: a dimerising Fc or GST, bivalent VNAR-Fc; also called Clone C-hFc) ARVDQTPQTITKETGESLTINCVLRDSNCALSSTYWYRKKSGSTNEENISKGGRYVETVNSGSKSFSLRINDLTVEDSGTYRCNVVQYPSYNNYFWCDVYGDGTAVTVN 213%
